B1: PPFIA4 (parent)
chain: YAGNLHESGVHGALLALDENFDHN

Variants of: B1
Test: protein stability index of a GFP-peptide fusion (GPS, HEK-293T) (PSI 1-6); higher = more stable;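 further: lentivirally expressed fusions sorted by FACS into six bins by GFP to DsRed ratio, PSI derived from sequencing read proportions per bin multiplied by bin number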
Conditions: c terminus: a fixed tail appended
metric: protein stability index

Form field: reported protein stability index of G9N 3.1

Same question, N4L this time 2.33

Same question, S8F this time 1.72

Same question, E19F this time 1.61

Same question, N4Y this time 2.2

Same question, F21H this time 3

Same question, L17E this time 4.52

Same question, A16E this time 4.12

Same question, G12I this time 1.94

Same question, G9Q this time 2.82

Same question, G3K this time 3.42

Same question, L14N this time 3.8

Same question, H23N this time 2.63

Same question, S8Q this time 2.71

Same question, G3D this time 3.83

Same question, V10I this time 2.23

Same question, L17K this time 3.24

Same question, N20M this time 2.09

Same question, H11L this time 1.76

Same question, G9T this time 2.9

Same question, H23S this time 2.19

Same question, N20Y this time 2.24
